- Tested on: PPARg:RXRa 270nM:90nM, anti-RXR (NR concentration 270 nM, RXRa partner concentration 90 nM)
- method: PBM binding z-score (relative to random genomic background probes); higher = stronger binding; sequences stand for … in GC…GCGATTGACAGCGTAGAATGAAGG
Returns Fulfilled if the recorded PBM binding z-score is greater than or equal to 2, and Not fulfilled otherwise.

Study these solved cases before continuing.
# ordered_residues, category
measured = [
    ("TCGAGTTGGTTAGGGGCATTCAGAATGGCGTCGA", "Not fulfilled"),
    ("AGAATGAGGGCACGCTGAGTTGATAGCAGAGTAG", "Fulfilled"),
    ("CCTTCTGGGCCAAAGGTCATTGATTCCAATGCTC", "Fulfilled"),
    ("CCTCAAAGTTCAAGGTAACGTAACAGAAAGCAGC", "Fulfilled"),
    ("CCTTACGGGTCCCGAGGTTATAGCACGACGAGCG", "Not fulfilled"),
]

Exercise: I'd appreciate it if you could say whether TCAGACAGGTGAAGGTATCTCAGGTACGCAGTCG has PBM binding z-score at least equal to 2.
Solution: Fulfilled

Exercise: I'd appreciate it if you could say whether GCAGCTAGGTCAGGTTGGTCAGCTAACGGGTACG has PBM binding z-score at least equal to 2.
Solution: Not fulfilled

Exercise: I'd appreciate it if you could say whether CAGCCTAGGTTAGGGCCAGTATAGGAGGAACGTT has PBM binding z-score at least equal to 2.
Solution: Not fulfilled

Exercise: I'd appreciate it if you could say whether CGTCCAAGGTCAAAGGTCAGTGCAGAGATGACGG has PBM binding z-score at least equal to 2.
Solution: Fulfilled

Exercise: I'd appreciate it if you could say whether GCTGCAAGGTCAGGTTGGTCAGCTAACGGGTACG has PBM binding z-score at least equal to 2.
Solution: Fulfilled

Exercise: I'd appreciate it if you could say whether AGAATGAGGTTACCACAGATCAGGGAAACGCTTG has PBM binding z-score at least equal to 2.
Solution: Fulfilled

Where do these numbers come from? They come from the supplement of paper PMC6555819.
